TESTED_TARGET: P2X purinoceptor 7 (Homo sapiens) (UniProt Q99572)
TEST_NAME: Percent inhibition of ATP-induced K+ efflux (with cations) in adherent HEK293 cells expressing human P2X7 receptor
Assay type: functional, cell-based
CONDITION_LABEL: concentration not given here
A collection of compounds and their measured inhibition
The reply must contain the numeric value and, after it, the unit.

Use the examples below as a reference point.
* Cc1nc(/N=N/c2cc(S(=O)(=O)O)ccc2S(=O)(=O)O)c2c(c1O)COP(=O)(O)OC2 | -1%
* Cc1nc(/N=N/c2cc(S(=O)(=O)O)ccc2S(=O)(=O)O)c(COP(=O)(O)O)c(COP(=O)(O)O)c1O | -1%
* Cc1nc(/N=N/c2cc(S(=O)(=O)O)ccc2Cl)c(COP(=O)(O)O)c(COP(=O)(O)O)c1O | -1%

Field: next compound
Simply: `Cc1nc(/N=N/c2cc(S(=O)(=O)O)ccc2S(=O)(=O)O)c(CP(=O)(O)O)c(C=O)c1O` , P2X purinoceptor 7 (Homo sapiens) (UniProt Q99572), inhibition = 51%

----------
TESTED_TARGET: P2X purinoceptor 7 (Homo sapiens)
Sequence (whole entry): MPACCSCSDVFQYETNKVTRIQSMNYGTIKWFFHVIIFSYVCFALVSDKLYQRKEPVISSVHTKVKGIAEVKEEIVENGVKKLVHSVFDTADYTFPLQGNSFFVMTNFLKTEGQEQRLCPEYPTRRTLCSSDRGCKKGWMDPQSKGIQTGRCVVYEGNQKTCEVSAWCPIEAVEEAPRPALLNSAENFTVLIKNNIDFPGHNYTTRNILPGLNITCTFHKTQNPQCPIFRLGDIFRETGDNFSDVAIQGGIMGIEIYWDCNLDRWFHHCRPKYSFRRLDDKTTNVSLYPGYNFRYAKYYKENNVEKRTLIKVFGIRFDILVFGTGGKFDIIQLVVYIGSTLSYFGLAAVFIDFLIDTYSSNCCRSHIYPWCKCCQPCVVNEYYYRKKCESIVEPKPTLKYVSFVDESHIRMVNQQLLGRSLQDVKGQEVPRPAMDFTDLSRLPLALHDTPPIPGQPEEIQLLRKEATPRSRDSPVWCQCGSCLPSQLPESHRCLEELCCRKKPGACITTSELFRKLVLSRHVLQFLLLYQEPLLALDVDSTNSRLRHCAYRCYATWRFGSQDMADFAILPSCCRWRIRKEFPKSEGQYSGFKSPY
TEST_NAME: Percent inhibition of ATP-induced K+ efflux (ethidium influx) in suspended HEK293 cells expressing human P2X7 receptor
Type: functional, cell-based
CONDITION_LABEL: concentration not given here
A collection of compounds and their measured inhibition
Kindly answer with a numeric value in %, unit omitted.

• Cc1nc(/N=N/c2cc(S(=O)(=O)O)ccc2Cl)c(CP(=O)(O)O)c(C=O)c1O = 40
• Cc1nc(/N=N/c2cc(S(=O)(=O)O)ccc2S(=O)(=O)O)c(COP(=O)(O)O)c(COP(=O)(O)O)c1O = 15
• Cc1nc(/N=N/c2cc(S(=O)(=O)O)ccc2S(=O)(=O)O)c(CP(=O)(O)O)c(C=O)c1O = 100

In plain terms, `Cc1nc(/N=N/c2cc(S(=O)(=O)O)ccc2Cl)c(COP(=O)(O)O)c(COP(=O)(O)O)c1O` has a documented inhibition of 12

In plain terms, `Cc1nc(/N=N/c2cc(S(=O)(=O)O)ccc2S(=O)(=O)O)c(COP(=O)(O)O)c(C=O)c1O` has a documented inhibition of 100

In plain terms, `CNc1ncnc2c1ncn2[C@H]1C[C@H](OP(=O)(O)O)[C@@H](COP(=O)(O)O)O1` has a documented inhibition of 100

In plain terms, `Cc1nc(/N=N/c2cc(CP(=O)(O)O)cc(CP(=O)(O)O)c2)c(CP(=O)(O)O)c(C=O)c1O` has a documented inhibition of 84

In plain terms, `Cc1nc(/N=N/c2cc(S(=O)(=O)O)ccc2S(=O)(=O)O)c2c(c1O)COP(=O)(O)OC2` has a documented inhibition of 17

----------
TESTED_TARGET: P2X purinoceptor 7 (Homo sapiens) (UniProt Q99572)
TEST_NAME: Percentage inhibition of ATP-induced K+ efflux (cation free) in adherent HEK293 cells expressing human P2X7 receptor
Assay type: functional, cell-based
CONDITION_LABEL: concentration not given here
READOUT_LABEL: inhibition (%)
Kindly answer with a numeric value in %, unit omitted.

Use the examples below as a reference point.
* Cc1nc(/N=N/c2cc(CP(=O)(O)O)cc(CP(=O)(O)O)c2)c(CP(=O)(O)O)c(C=O)c1O | -5
* Cc1nc(/N=N/c2cc(S(=O)(=O)O)ccc2S(=O)(=O)O)c(COP(=O)(O)O)c(C=O)c1O | 67
* CNc1ncnc2c1ncn2[C@H]1C[C@H](OP(=O)(O)O)[C@@H](COP(=O)(O)O)O1 | 24

Field: next molecule
In plain terms, `Cc1nc(/N=N/c2cc(S(=O)(=O)O)ccc2S(=O)(=O)O)c(CP(=O)(O)O)c(C=O)c1O` has a documented inhibition of 28

----------
A collection of compounds and their measured inhibition
TESTED_TARGET: P2X purinoceptor 7 (Homo sapiens) (UniProt Q99572)
Sequence (whole entry): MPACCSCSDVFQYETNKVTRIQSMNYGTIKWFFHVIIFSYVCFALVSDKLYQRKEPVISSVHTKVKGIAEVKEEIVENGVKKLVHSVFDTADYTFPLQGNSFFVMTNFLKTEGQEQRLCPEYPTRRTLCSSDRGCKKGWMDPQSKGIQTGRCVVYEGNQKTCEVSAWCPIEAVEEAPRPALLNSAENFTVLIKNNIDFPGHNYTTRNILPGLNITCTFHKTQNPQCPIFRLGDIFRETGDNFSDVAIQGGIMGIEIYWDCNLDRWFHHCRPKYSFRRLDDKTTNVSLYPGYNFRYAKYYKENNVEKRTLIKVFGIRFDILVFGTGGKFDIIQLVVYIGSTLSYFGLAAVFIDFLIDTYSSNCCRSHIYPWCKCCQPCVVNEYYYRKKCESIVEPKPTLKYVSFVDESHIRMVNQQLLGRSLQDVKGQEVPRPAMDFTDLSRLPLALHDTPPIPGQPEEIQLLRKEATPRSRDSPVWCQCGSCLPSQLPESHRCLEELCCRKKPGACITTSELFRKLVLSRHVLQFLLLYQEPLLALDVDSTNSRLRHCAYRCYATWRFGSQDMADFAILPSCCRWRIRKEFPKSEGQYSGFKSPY
TEST_NAME: Percentage inhibition of ATP-induced K+ efflux (cation free) in adherent HEK293 cells expressing human P2X7 receptor
Format: functional, cell-based
CONDITION_LABEL: concentration not given here
Kindly answer with a numeric value in %, unit omitted.

Use the examples below as a reference point.
* Cc1nc(/N=N/c2cc(S(=O)(=O)O)ccc2S(=O)(=O)O)c2c(c1O)COP(=O)(O)OC2 | -5
* Cc1nc(/N=N/c2cc(S(=O)(=O)O)ccc2Cl)c(CP(=O)(O)O)c(C=O)c1O | -8
* Cc1nc(/N=N/c2cc(S(=O)(=O)O)ccc2Cl)c(COP(=O)(O)O)c(COP(=O)(O)O)c1O | -5

Field: next compound
In plain terms, `Cc1nc(/N=N/c2cc(S(=O)(=O)O)ccc2S(=O)(=O)O)c(COP(=O)(O)O)c(COP(=O)(O)O)c1O` has a documented inhibition of -7

----------
TESTED_TARGET: P2X purinoceptor 2 (Rattus norvegicus)
Sequence (P49653 whole entry): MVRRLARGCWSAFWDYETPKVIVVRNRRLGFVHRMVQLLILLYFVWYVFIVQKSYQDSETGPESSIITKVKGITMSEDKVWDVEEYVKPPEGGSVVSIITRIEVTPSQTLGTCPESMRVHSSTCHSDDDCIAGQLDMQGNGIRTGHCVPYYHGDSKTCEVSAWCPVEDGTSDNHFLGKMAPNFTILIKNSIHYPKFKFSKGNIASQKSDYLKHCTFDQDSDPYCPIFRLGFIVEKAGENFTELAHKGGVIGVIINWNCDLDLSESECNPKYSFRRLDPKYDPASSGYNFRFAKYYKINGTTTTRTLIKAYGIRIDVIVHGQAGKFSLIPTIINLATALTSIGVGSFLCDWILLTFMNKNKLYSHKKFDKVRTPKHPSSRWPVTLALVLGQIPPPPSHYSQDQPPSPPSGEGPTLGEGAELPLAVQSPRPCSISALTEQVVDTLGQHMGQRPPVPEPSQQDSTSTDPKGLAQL
TEST_NAME: Inhibition of inward ion current elicited by ATP at P2X2 receptor expressed in Xenopus oocytes
READOUT_LABEL: IC50 (nM)
Kindly answer with a numeric value in nM, unit omitted.

• Cc1nc(/N=N/c2ccc(C(=O)O)cc2)c(COP(=O)(O)O)c(C=O)c1O = 11900
• Cc1nc(/N=N/c2ccc(S(=O)(=O)O)cc2S(=O)(=O)O)c(COP(=O)(O)O)c(C=O)c1O = 1600

Field: next molecule
In plain terms, `Cc1nc(/N=N/c2cc(C(=O)O)ccc2C(=O)O)c(CP(=O)(O)O)c(C=O)c1O` has a documented IC50 of 486
